B1: CPEB3 Ribozyme (parent)
chain: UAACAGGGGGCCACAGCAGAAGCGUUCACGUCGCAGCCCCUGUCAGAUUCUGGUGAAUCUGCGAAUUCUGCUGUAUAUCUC

variants of: B1; assay: self-cleavage, relative activity (ratio to wild type); higher = more cleavage; in vitro, sequencing
observedProperty: self-cleavage

Requested read-out: self-cleavage. Entry: G8A A65U 0.06

Follow-up entry: U49C U51C 0.38

Follow-up entry: A64U U80C 0.45

Follow-up entry: A15U U72A 1.09

Follow-up entry: G24U U67A 0.16

Follow-up entry: G63C U76C 1.03

Follow-up entry: C39U C71U 0.57

Follow-up entry: A18G C68U 0.52

Follow-up entry: A20G A21G 0.37

Follow-up entry: A2U G36A 0.29

Follow-up entry: A2G C12U 1.04

Follow-up entry: C62A G73A 0.24

Follow-up entry: C23U U78C 0.27

Follow-up entry: G42C A57G 0.25

Follow-up entry: A20C A47U 0.47

Follow-up entry: C23G A57G 0.16

Follow-up entry: U25G G70C 0.33

Follow-up entry: U49A U66C 0.38

Follow-up entry: A13U U43G 0.26

Follow-up entry: A56G C81G 1.22

Follow-up entry: A18G C59G 0.25

Follow-up entry: G6U U49C 0.22

Follow-up entry: A18G A64U 0.29

Follow-up entry: G16A C27A 0.17

Follow-up entry: C40A A56U 0.2

Follow-up entry: A3G G33C 0.31

Follow-up entry: A13G G46A 0.21

Follow-up entry: A18C C27U 0.21

Follow-up entry: G6A 0.4

Follow-up entry: U54C G61C 0.3

Follow-up entry: G10A U54G 0.16

Follow-up entry: G6C U31A 0.16

Follow-up entry: A18G U51A 0.74

Follow-up entry: C14G A21U 0.16

Follow-up entry: C32A U48C 0.22

Follow-up entry: A13U A65C 0.17

Follow-up entry: C37U C79A 1.11

Follow-up entry: U26G A64G 0.25

Follow-up entry: U26A U69A 0.46

Follow-up entry: G6C C38A 0.43

Follow-up entry: G6C U31C 0.45

Follow-up entry: U41C U67A 0.53

Follow-up entry: A20U U67A 1.16

Follow-up entry: A56G A57C 0.19

Follow-up entry: G61A U69C 0.53

Follow-up entry: G22C U67C 0.11

Follow-up entry: A15G G55A 0.66

Follow-up entry: A28G C38G 0.25

Follow-up entry: U41A U54G 0.22

Follow-up entry: A5U C59G 0.37

Follow-up entry: C34G C68A 0.1

Follow-up entry: U31C C71G 0.23

Follow-up entry: A15U U31C 0.35

Follow-up entry: G42A A47G 0.42

Follow-up entry: A13G C34G 0.17

Follow-up entry: A18U U43A 0.64

Follow-up entry: G46A U80C 0.37

Follow-up entry: C44G A65U 0.1

Follow-up entry: C34A U66C 0.46

Follow-up entry: C40U U78A 0.75

Follow-up entry: U51A C62U 0.25

Follow-up entry: A45G G55A 0.43

Follow-up entry: C40G U72G 0.16

Follow-up entry: A13U A21U 0.35

Follow-up entry: G53A U78C 1.06

Follow-up entry: C38A 0.3

Follow-up entry: G9C U76C 0.3

Follow-up entry: G10C U54C 0.39

Follow-up entry: A13C A75G 1.12

Follow-up entry: G42A U60A 0.3

Follow-up entry: C44U U60A 0.14

Follow-up entry: U66A U72C 0.59

Follow-up entry: A20G A56G 0.66

Follow-up entry: U25C A56C 0.25

Follow-up entry: A15U A28G 0.22

Follow-up entry: U72A U76A 0.72

Follow-up entry: C59U U72C 1.14

Follow-up entry: G33C A77G 0.11

Follow-up entry: C32A G52A 0.29

Follow-up entry: A45G 0.85

Follow-up entry: A28C G70U 0.11

Follow-up entry: G8A U80C 0.19

Follow-up entry: A35G U51C 1.27

Follow-up entry: C11G U74C 0.91

Follow-up entry: G22C C29U 0.1

Follow-up entry: C40U G53A 0.84

Follow-up entry: U51G U69G 0.49

Follow-up entry: A21G G33A 0.33

Follow-up entry: U25C U78A 0.25

Follow-up entry: U25C U66G 0.69

Follow-up entry: U41G G52C 0.14
